Data provenance is ChEMBL document CHEMBL5365523.

Target: Vitamin K epoxide reductase complex subunit 1 (Homo sapiens, UniProt Q9BQB6)
Sequence (Q9BQB6 whole entry, one chain of several): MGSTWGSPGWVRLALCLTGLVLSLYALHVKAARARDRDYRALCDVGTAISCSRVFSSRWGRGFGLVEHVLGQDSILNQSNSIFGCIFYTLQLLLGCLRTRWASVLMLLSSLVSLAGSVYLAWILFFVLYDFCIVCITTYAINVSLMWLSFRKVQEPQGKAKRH
Assay: Inhibition of recombinant human wild-type VKORC1 expressed in Pichia pastoris membrane incubated for 30 mins in presence of presence of dithiothreitol by LC-APCI/MS/MS analysis
Rule: IC50 below 600 nM gives true (1), anything at or above gives false (0).

Compound: COc1ccc(Cc2c(O)c3ccccc3oc2=O)cc1
Group label: false (0)
--
Compound: CC(c1ccccc1)c1c(O)c2ccccc2oc1=O (configuration not stated)
Group label: false (0)
--
Compound: CSc1ccc(Cc2c(O)c3ccccc3oc2=O)cc1
Group label: true (1)
--
Compound: O=c1oc2ccccc2c(O)c1Cc1ccc(C(F)(F)F)cc1
Group label: true (1)
--
Compound: CC(O)CC(c1ccccc1)c1c(O)c2ccccc2oc1=O (configuration not stated)
Group label: false (0)
--
Compound: COc1cccc(Cc2c(O)c3ccccc3oc2=O)c1
Group label: false (0)
--
Compound: CC(C)=CCC/C(C)=C\CC/C(C)=C\Cc1c(O)c2ccccc2oc1=O
Group label: true (1)
--
Compound: O=c1oc2ccccc2c(O)c1Cc1cccnc1
Group label: false (0)
--
Compound: O=c1oc2ccccc2c(O)c1Cc1ccc(Br)cc1
Group label: false (0)
--
Compound: O=c1oc2ccccc2c(O)c1Cc1ccc2c(c1)OCO2
Group label: false (0)
--
Compound: CC(C)=CCc1c(O)c2ccccc2oc1=O
Group label: false (0)
--
Compound: O=c1oc2ccccc2c(O)c1C1CC(c2ccc(-c3ccc(Br)cc3)cc2)Cc2ccccc21 (configuration not stated)
Group label: true (1)
